ASSAY OVERVIEW: Octanol-water partition coefficient, log P of the compound at pH 7.4 by shake flask method
Assay type: physicochemical
ASSAY METRIC: logD
Keep it simple and answer with nothing but the number.

[Q] Query (compound): COc1cc(/C=C/C(=O)Nc2ccccc2)ccc1OCCCCCCN1CCCC1 ; field requested: logD
[A] 1.76

[Q] And CCOC(=O)/C=C/c1ccc(OCCCCCCN2CCCC2)c(OC)c1 ?
[A] 1.82

[Q] Now the same for COc1cc(/C=C/C(=O)Nc2ccccc2)ccc1O
[A] 1.42

[Q] Follow-up entry: CCOC(=O)/C=C/c1ccc(OCCCCCCN2CCCCC2)c(OC)c1
[A] 1.81

[Q] What do you have for COc1cc(/C=C/C(=O)Nc2ccccc2)ccc1OCCN1CCCC1 ?
[A] 1.54

[Q] What would you report for CCN(CC)CCCCOc1ccc(/C=C/C(=O)Nc2ccccc2)cc1OC ?
[A] 1.59

[Q] Again, but for COc1cc(/C=C/C(=O)Nc2ccccc2)ccc1OCCCN1CCCC1
[A] 1.57

[Q] Same again, this time with COc1cc(/C=C/C(=O)Nc2ccccc2)ccc1OCCCCCCCCCCN1CCCC1
[A] 1.86

[Q] Now consider COc1cc(/C=C/C(=O)O)ccc1OCCCCCCN1CCCC1 .
[A] 1.29

[Q] And the next one, CCN(CC)CCOc1ccc(/C=C/C(=O)Nc2ccccc2)cc1OC ?
[A] 1.53

[Q] Similarly, CCN(CC)CCCCCOc1ccc(/C=C/C(=O)Nc2ccccc2)cc1OC ?
[A] 1.63
